Data provenance is patent US20230310428A1.

MEASURED_ON: various mutants of kinase EGFR (BaF3 cell lines stably transfected with kinase) (Homo sapiens, UniProt P00533, T790M, form not given)
Construct: other: BaF3 cells stably transfected with EGFR Δ19Del/T790M; MTS, 48 h; other: BaF3 cell line stably transfected with EGFR Δ19Del/T790M; MTS, 48
Sequence (P00533 with tags, fused parts or gaps DEL746-750/T790M, form open): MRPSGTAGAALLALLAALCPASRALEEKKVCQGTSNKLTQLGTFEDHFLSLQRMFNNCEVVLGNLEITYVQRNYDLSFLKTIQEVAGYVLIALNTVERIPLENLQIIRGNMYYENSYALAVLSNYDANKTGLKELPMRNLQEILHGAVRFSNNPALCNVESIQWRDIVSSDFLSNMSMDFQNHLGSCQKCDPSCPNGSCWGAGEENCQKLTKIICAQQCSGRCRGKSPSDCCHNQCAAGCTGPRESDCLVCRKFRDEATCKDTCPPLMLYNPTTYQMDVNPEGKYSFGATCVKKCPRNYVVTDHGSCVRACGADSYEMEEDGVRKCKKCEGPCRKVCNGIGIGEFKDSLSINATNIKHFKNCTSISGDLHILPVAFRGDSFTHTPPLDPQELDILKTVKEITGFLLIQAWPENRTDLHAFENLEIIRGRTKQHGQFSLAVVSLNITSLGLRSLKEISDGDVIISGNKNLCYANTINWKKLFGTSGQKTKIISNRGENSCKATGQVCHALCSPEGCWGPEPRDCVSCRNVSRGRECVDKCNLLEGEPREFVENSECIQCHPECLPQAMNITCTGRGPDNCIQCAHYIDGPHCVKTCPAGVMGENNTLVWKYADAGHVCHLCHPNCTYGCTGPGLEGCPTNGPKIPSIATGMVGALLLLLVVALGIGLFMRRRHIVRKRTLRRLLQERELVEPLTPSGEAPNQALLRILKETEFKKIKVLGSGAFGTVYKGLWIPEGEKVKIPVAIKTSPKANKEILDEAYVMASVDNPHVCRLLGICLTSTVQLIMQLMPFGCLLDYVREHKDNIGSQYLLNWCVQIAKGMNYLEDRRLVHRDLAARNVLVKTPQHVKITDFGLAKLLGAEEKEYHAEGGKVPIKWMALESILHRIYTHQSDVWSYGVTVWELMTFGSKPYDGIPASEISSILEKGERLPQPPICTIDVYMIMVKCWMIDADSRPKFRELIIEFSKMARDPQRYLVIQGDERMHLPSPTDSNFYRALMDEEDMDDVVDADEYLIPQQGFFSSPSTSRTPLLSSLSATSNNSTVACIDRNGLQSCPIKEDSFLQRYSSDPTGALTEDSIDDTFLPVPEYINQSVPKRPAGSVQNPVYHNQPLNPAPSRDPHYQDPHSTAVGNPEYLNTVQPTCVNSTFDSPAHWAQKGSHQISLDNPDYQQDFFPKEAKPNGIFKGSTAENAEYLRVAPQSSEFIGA
ASSAY_PROTOCOL: Growth inhibitory activity of compounds on BaF3 cell lines stably transfected with kinase (MTS, 48 h)
Assay type: cell-based
MEASUREMENT_SETUP: BaF3 cell line stably transfected with EGFR Δ19Del/T790M, read-out: Δ19Del/ T790M growth inhibitory activity IC50
Description: The activity of compounds against various mutants of kinase EGFR was evaluated by their effect of inhibiting growth of BaF3 cell lines stably transfected with kinase. The specific test method was given as follows: […] 3) Compound test: cells were incubated into a 96-well culture plate, the volume of cytosol was 90 µL, and then 10 µL of the compound at each gradient concentration was added. […] OD values at 490 nm were measured by a microplate reader (VARIOSKAN FLASH, Thermo). […]
MEASUREMENT_TYPE: IC50

Worked examples follow.
CCc1cc(Nc2ncc(C(C)C)c(Nc3ccc4nccnc4c3N(C)S(C)(=O)=O)n2)c(OC)cc1N1CCN(C)CC1 :: ≤ 0.05 µM
CCc1cc(Nc2ncc(Br)c(Nc3ccc4nccnc4c3N(C)S(C)(=O)=O)n2)c(OC)cc1NCCO :: 0.05 to 0.5 µM
COc1ccc(N2CCC(C#N)CC2)cc1Nc1ncc(Br)c(Nc2ccc3nccnc3c2N(C)S(C)(=O)=O)n1 :: 0.05 to 0.5 µM

Need IC50, item `CCc1cc(Nc2ncc(Br)c(Nc3ccc4nccnc4c3NS(C)(=O)=O)n2)c(OC)nc1N1CCC(N2CCN(C)CC2)CC1`
≤ 0.05 µM

Another: `COc1ccc(N2CCC(O)CC2)cc1Nc1ncc(OC)c(Nc2ccc3nccnc3c2N(C)S(C)(=O)=O)n1`
0.05 to 0.5 µM

Another: `CCc1cc(Nc2ncc(CC)c(Nc3ccc4nccnc4c3N(C)S(C)(=O)=O)n2)c(OC)cc1N1CCN(C)CC1`
≤ 0.05 µM

Another: `CCc1cc(Nc2nc(Nc3ccc4nccnc4c3N(C)S(C)(=O)=O)c3[nH]ccc3n2)c(OC)cc1N1CCN(C)CC1`
0.05 to 0.5 µM

Another: `CCc1cc(Nc2ncc(C#N)c(Nc3ccc4nccnc4c3N(C)S(C)(=O)=O)n2)ccc1N1CCC(N2CCN(C)CC2)CC1`
≤ 0.05 µM

Another: `CCc1cc(Nc2ncc(CC)c(Nc3ccc4nccnc4c3N(C)S(C)(=O)=O)n2)ccc1N1CCC(N2CCN(C)CC2)CC1`
≤ 0.05 µM

Another: `COc1nc(N2CCC(N3CCN(C)CC3)CC2)ccc1Nc1nc(Nc2ccc3nccnc3c2N(C)S(C)(=O)=O)c2[nH]ccc2n1`
0.5 to 2.5 µM

Another: `COc1cc(N2CCC(N3CCN(C)CC3)CC2)c(C(C)C)cc1Nc1ncc(C#N)c(Nc2ccc3nccnc3c2N(C)S(C)(=O)=O)n1`
0.05 to 0.5 µM

Another: `CCc1cnc(Nc2ccc(N3CCC(N4CCN(C)CC4)CC3)c(F)c2F)nc1Nc1ccc2nccnc2c1N(C)S(C)(=O)=O`
≤ 0.05 µM

Another: `CN1CCN(C2CCN(c3ccc(Nc4ncc(Cl)c(Nc5ccc6nccnc6c5N(C)S(C)(=O)=O)n4)c(F)c3F)CC2)CC1`
0.05 to 0.5 µM

Another: `COc1cc(N2CCC(N3CCN(C)CC3)CC2)c(CC2CC2)cc1Nc1nc(Nc2ccc3nccnc3c2N(C)S(C)(=O)=O)c2occc2n1`
0.5 to 2.5 µM

Another: `CN1CCN(C2CCN(c3ccc(Nc4ncc(Br)c(Nc5ccc6nccnc6c5N(C)S(C)(=O)=O)n4)c(F)c3F)CC2)CC1`
≤ 0.05 µM
